Read-out: Monocyte Chemoattractant Protein-1 (MCP1), CCL2 (gene 6347)
experiment: BSK_SAg_MCP1: BioMAP Diversity Plus: SAg Assay for Monocyte Chemoattractant Protein-1 (MCP1) Biomarker Activity (AID 2283090)
cond: primary human HUVEC with PBMC; actives raise or lower the signal
Activity calls are given as the source filed them. Rule for the calls: active = hit-call score of the fitted dose curve at least 0.9, where 1 is the maximum; inactive = score below 0.9.
Outcome (select one): yes (active), no (inactive)

Some solved entries appear below for comparison.
- CC(C)(C)c1ccccc1OP(=O)(Oc1ccccc1)Oc1ccccc1: yes
- O=C(O)C(Cl)Cl: no
- CC(C)Nc1ccc(Nc2ccccc2)cc1: yes
- O=C(O)C=CC(F)(C(F)(F)F)C(F)(F)F: no
- NC(=O)C(F)(F)C(F)(F)F: no
- CSC(C)(C)C=NO: no
- CCCCC(CC)COP(=O)(Oc1ccccc1)Oc1ccccc1 (stereo not given): no
- c1cc2c3c(cccc3c1)CC2: no

Q: Entry FC(F)(F)C(F)(C(F)(F)F)C(F)(F)C(F)(F)CC1CO1 (stereo not given) : call = ?
Result: no

Q: Entry CCOP(=S)(OCC)SCn1nnc2ccccc2c1=O : call = ?
Result: no

Q: Entry Nc1ccc([N+](=O)[O-])cc1Cl : call = ?
Result: no

Q: Entry O=P(OCC(Br)CBr)(OCC(Br)CBr)OCC(Br)CBr (stereo not given) : call = ?
Result: no

Q: Entry O=[N+]([O-])c1ccc(Cl)c(Cl)c1 : call = ?
Result: no

Q: Entry Cc1c([N+](=O)[O-])cc2c(c1[N+](=O)[O-])C(C)(C)CC2(C)C : call = ?
Result: no

Q: Entry Cc1ccc([N+](=O)[O-])cc1C : call = ?
Result: no

Q: Entry COP(N)(=S)OC : call = ?
Result: no

Q: Entry COC(=O)C(F)(F)C(F)(F)OC(F)(C(F)(F)F)C(F)(F)OC(F)=C(F)F (stereo not given) : call = ?
Result: no

Q: Entry Cc1ccc(N)cc1N : call = ?
Result: no

Q: Entry N#Cc1cc([N+](=O)[O-])ccc1N : call = ?
Result: no

Q: Entry Nc1cc2c3c(c1)C(c1ccccc1)=N[C@@H](NC(=O)c1cccnc1)C(=O)N3CC2 : call = ?
Result: no

Q: Entry Nc1ccc2ccccc2c1 : call = ?
Result: no

Q: Entry OCC1CO1 (stereo not given) : call = ?
Result: no

Q: Entry O=P(Oc1ccccc1)(Oc1ccccc1)Oc1ccccc1 : call = ?
Result: yes

Q: Entry Cc1ccc2c(c1N)C(=O)c1ccccc1C2=O : call = ?
Result: no

Q: Entry ClC(Cl)c1ccccc1 : call = ?
Result: no

Q: Entry CCCCc1ccccc1 : call = ?
Result: no

Q: Entry CC(C)(C)OOC(C)(C)C : call = ?
Result: no

Q: Entry O=P1(N(CCCl)CCCl)NCCCO1 (stereo not given) : call = ?
Result: no

Q: Entry c1ccc2c(c1)Nc1ccccc1S2 : call = ?
Result: no

Q: Entry [N-]=[N+]=[N-] : call = ?
Result: no

----------
Read-out: Basic fibroblast growth factor (bFGF), FGF2 (gene 2247)
experiment: BSK_MyoF_bFGF: BioMAP Diversity Plus: MyoF Assay for Basic fibroblast growth factor (bFGF) Biomarker Activity (AID 2284246)
cond: primary human lung fibroblasts
Activity calls are given as the source filed them. Rule for the calls: active = hit-call score of the fitted dose curve at least 0.9, where 1 is the maximum; inactive = score below 0.9.
Outcome (select one): active, inactive

Q: Entry FC(F)(F)C(F)(C(F)(F)F)C(F)(F)C(F)(F)CC1CO1 (configuration not stated) : call = ?
Result: inactive

Q: Entry COP(=O)(O)OC : call = ?
Result: inactive

Q: Entry CCOP(=S)(NC(C)C)Oc1ccccc1C(=O)OC(C)C (configuration not stated) : call = ?
Result: inactive

Q: Entry N#Cc1cc([N+](=O)[O-])ccc1N : call = ?
Result: inactive

----------
measured-on: Paired box protein Pax-6 (Homo sapiens)
experiment: ATG_Pax6_CIS: Attagene CIS-FACTORIAL HepG2 Assay for human Paired Box 6 (PAX6) (AID 2282956)
cond: HepG2 CIS-FACTORIAL PAX6 reporter transcription, RNA readout; actives raise or lower the signal
Procedure: ATG_CIS is a cell-based, multiplexed-readout assay that uses HepG2, a human liver cell line, with measurements taken at 24 hours after chemical dosing in a 24-well plate.ATG_Pax6_CIS is one of 52 assay component(s) measured or calculated from the ATG_CIS assay. […] This assay endpoint, ATG_Pax6_CIS, was analyzed with bidirectional fitting relative to DMSO as the negative control and baseline of activity. […]
The source made the active and inactive calls. How the source made its calls: active means hit-call score of the fitted dose curve at least 0.9, where 1 is the maximum; inactive means score below 0.9.
Outcome (select one): 1 for active, -1 for inactive

* CCCCC(CC)COC(=O)c1c(Br)c(Br)c(Br)c(Br)c1C(=O)OCC(CC)CCCC (configuration not stated) | -1

Q: Entry Oc1ccccc1Br : call = ?
Result: -1

Q: Entry CO/N=C(/C(=O)OC)c1ccccc1COc1ccccc1C : call = ?
Result: 1

Q: Entry NNC(N)=S : call = ?
Result: -1

----------
Read-out: Cyclin Dependent Kinase Inhibitor 1A (CDKN1A), CDKN1A (gene 1026)
experiment: LTEA_HepaRG_CDKN1A: Life Technologies and Expression Analysis (LTEA) Assay for Cyclin Dependent Kinase Inhibitor 1A (CDKN1A) using HepaRG (AID 2283450)
cond: mRNA level, 48 h; actives raise or lower the signal
Method: LTEA_HepaRG is a cell based, multiplexed-readout assay that uses HepaRG, a human liver cell line, with measurements taken at 48 hours after chemical dosing on a 96-well plate.LTEA_HepaRG_CDKN1A is one of 102 assay component(s) measured in the LTEA HepaRG cell culture assay. It is a marker of Cell proliferation, survival, death.Data from the assay component LTEA_HepaRG_CDKN1A was analyzed into 1 endpoint. […]
Calls of active or inactive are those of the source. The calls were made as follows: active = hit-call score of the fitted dose curve at least 0.9, where 1 is the maximum; inactive = score below 0.9.
Outcome (select one): 1 (yes) (active), 0 (no) (inactive)

Q: Entry O=[N+]([O-])c1ccccc1 : call = ?
Result: 0 (no)

Q: Entry Cc1ccc(N)cc1N : call = ?
Result: 0 (no)

Q: Entry O=[N+]([O-])c1ccc(Cl)c(Cl)c1 : call = ?
Result: 0 (no)

Q: Entry O=P(Oc1ccccc1)(Oc1ccccc1)Oc1ccccc1 : call = ?
Result: 1 (yes)

Q: Entry c1cc2c3c(cccc3c1)CC2 : call = ?
Result: 1 (yes)

Q: Entry CCCN(CCC)c1c([N+](=O)[O-])cc(C(C)C)cc1[N+](=O)[O-] : call = ?
Result: 0 (no)

Q: Entry CN(C)C(=O)Cl : call = ?
Result: 0 (no)

Q: Entry Cc1ccc(O)cc1C : call = ?
Result: 0 (no)

----------
experiment: BSK_3C_Proliferation: Cell Proliferation Assessment in the BioMAP Diversity Plus: 3C Assay (AID 2283006)
cond: primary human endothelial cells (HUVEC)
The source made the active and inactive calls. How the source made its calls: active means hit-call score of the fitted dose curve at least 0.9, where 1 is the maximum; inactive means score below 0.9.
Outcome (select one): true (active), false (inactive)

Some solved entries appear below for comparison.
* O=S1(=O)OCC2C(CO1)C1(Cl)C(Cl)=C(Cl)C2(Cl)C1(Cl)Cl (configuration not stated) | true
* O=C(O)C(F)(F)OC(F)(F)C(F)(F)OC(F)(F)F | false
* CCCCC(CC)COP(=O)(Oc1ccccc1)Oc1ccccc1 (configuration not stated) | true
* COP(=O)(CCC(=O)NCO)OC | false

Q: Entry CCOP(=S)(NC(C)C)Oc1ccccc1C(=O)OC(C)C (configuration not stated) : call = ?
Result: false

Q: Entry CC(C)(C)OOC(C)(C)C : call = ?
Result: false

Q: Entry CC(Cl)(Cl)C(=O)O : call = ?
Result: false

----------
Read-out: Vascular endothelial growth factor receptor 2 (Homo sapiens) (UniProt P35968)
experiment: BSK_4H_VEGFRII: BioMAP Diversity Plus: 4H Assay for Vascular endothelial growth factor receptor 2 (VEGFR2) Biomarker Activity (AID 2283031)
cond: primary human endothelial cells (HUVEC); actives raise or lower the signal
Activity calls are given as the source filed them. The calls were made as follows: active = hit-call score of the fitted dose curve at least 0.9, where 1 is the maximum; inactive = score below 0.9.
Outcome (select one): active, inactive

Some solved entries appear below for comparison.
• COP(=O)(CCC(=O)NCO)OC = inactive
• Nc1ccc([N+](=O)[O-])cc1Cl = inactive
• CCN(CC)c1ccccc1 = inactive
• Cc1ccc(O)cc1C = inactive

Q: Entry CC(C)(C)OOC(C)(C)C : call = ?
Result: inactive

Q: Entry OCC1CO1 (stereo unspecified) : call = ?
Result: inactive

Q: Entry O=P(Oc1ccccc1)(Oc1ccccc1)Oc1ccccc1 : call = ?
Result: inactive

----------
experiment: ATG_RORE_CIS: Attagene CIS-FACTORIAL HepG2 Assay for human RAR-related Orphan Receptor Element (RORE) (AID 2282959)
cond: HepG2 Attagene cis-factorial RORE reporter, mRNA; actives raise or lower the signal
The source made the active and inactive calls. Rule for the calls: active = hit-call score of the fitted dose curve at least 0.9, where 1 is the maximum; inactive = score below 0.9.
Outcome (select one): active, inactive

Some solved entries appear below for comparison.
* CCOP(=S)(NC(C)C)Oc1ccccc1C(=O)OC(C)C (stereo not drawn) | active
* O=C(O)C(F)(F)OC(F)(F)C(F)(F)OC(F)(F)C(=O)O | inactive
* CCOC(=O)c1ccccc1C(=O)OCC | inactive

Q: Entry CSC(C)(C)C=NO : call = ?
Result: inactive

Q: Entry CC1(C)CN=C(NN=C(/C=C/c2ccc(C(F)(F)F)cc2)/C=C/c2ccc(C(F)(F)F)cc2)NC1 : call = ?
Result: inactive

Q: Entry Oc1ccc(I)cc1 : call = ?
Result: inactive

Q: Entry N#Cc1c(-c2ccc(Cl)cc2)[nH]c(C(F)(F)F)c1Br : call = ?
Result: active

Q: Entry CCCCc1ccccc1 : call = ?
Result: inactive

Q: Entry O=C(CBr)OCc1ccccc1 : call = ?
Result: inactive

Q: Entry CC(=O)CCc1ccc2c(c1)OCO2 : call = ?
Result: inactive

Q: Entry CCCCN(CCCC)SN(C)C(=O)Oc1cccc2c1OC(C)(C)C2 : call = ?
Result: inactive

Q: Entry Nc1ccc(Cl)cc1 : call = ?
Result: inactive

Q: Entry Nc1cc2c3c(c1)C(c1ccccc1)=N[C@@H](NC(=O)c1cccnc1)C(=O)N3CC2 : call = ?
Result: active
